- test method notes: Log P
- stated conditions: octanol/water
measurement name: logP
Reply briefly: the number, and no unit.

Check the records and state logP for `COc1cc(CNC(=O)CCCC/C=C/C(C)C)ccc1O`
3.66
